- System: L1210 leukemia ip in BDF1 mice, survival T/C
- Protocol Details: NCI In Vivo Anticancer Drug Screen. Data for tumor model L1210 Leukemia (intraperitoneal) in B6D2F1 (BDF1) mice
- Condition Summary: endpoint: mean survival time; dose: 100.0 mg/kg/injection; schedule: Q01DX001 (ip); vehicle: saline; higher = longer survival
- Description: The antitumor activity of compounds was measured in mice bearing transplantable tumors. Survival or tumor size were measured and the results are expressed as the measurement made in the treated group (T) divided by the measurement made in the vehicle treated control group (C). The tumor model used in this assay is L1210 Leukemia (intraperitoneal) in B6D2F1 (BDF1) mice
Toxic doses and inconclusive results are not listed.

| Compound | Assay Target | T/C |
| --- | --- | --- |
| CC(=O)Nc1ccc(/C=N/Nc2c3ccccc3nc3ccccc23)cc1 | L1210 leukemia ip in BDF1 mice, survival T/C | 108 % of control |
| O=Cc1cc(=O)[nH]c(NC(=O)C(Cl)Cl)n1 | L1210 leukemia ip in BDF1 mice, survival T/C | 101 % of control |
| CCOC(=O)C(C)(c1[nH]c2ccccc2c1C)c1[nH]c2ccccc2c1C | L1210 leukemia ip in BDF1 mice, survival T/C | 103 % of control |
| O=[N+]([O-])c1ccc(NC(CO)C(O)C(O)C(O)CO)c([N+](=O)[O-])c1 (stereo unspecified) | L1210 leukemia ip in BDF1 mice, survival T/C | 102 % of control |
| CC(C)(C)C(Br)C(=O)Nc1ccccc1 (stereo unspecified) | L1210 leukemia ip in BDF1 mice, survival T/C | 104 % of control |
| c1ccc2c(c1)ncc1cccn12 | L1210 leukemia ip in BDF1 mice, survival T/C | 103 % of control |

====

- System: L1210 leukemia ip in BDF1 mice, survival T/C
- Protocol Details: NCI In Vivo Anticancer Drug Screen. Data for tumor model L1210 Leukemia (intraperitoneal) in B6D2F1 (BDF1) mice
- Condition Summary: endpoint: mean survival time; dose: 100.0 mg/kg/injection; schedule: Q01DX009 (ip); vehicle: gum acacia; higher = longer survival
Inconclusive results and toxic doses are left out.
Let's look at some compounds and their measured T/C.

| Compound | T/C |
| --- | --- |
| CCCCOC(=O)Nc1ccc(N)c(NC(=O)OCCCC)n1 | 88 % of control |
| COc1ccccc1NC(=O)Nc1ccc(C)c(C)c1 | 92 % of control |
| Cc1ccc(CNC(=O)Nc2cccc(C(F)(F)F)c2)cc1C | 89 % of control |
| O=C(O)C(Cl)c1ccccc1 (stereo not given) | 106 % of control |
| CCOC(=O)c1cnc(SCC)nc1SC#N | 105 % of control |

====

- Tested on: L1210 leukemia ip in BDF1 mice, survival T/C
- Protocol Details: NCI In Vivo Anticancer Drug Screen. Data for tumor model L1210 Leukemia (intraperitoneal) in B6D2F1 (BDF1) mice
- Condition Summary: endpoint: mean survival time; dose: 100.0 mg/kg/injection; schedule: Q04DX003 (ip); vehicle: saline; higher = longer survival
Toxic doses and inconclusive results are not listed.
Assay Readout: T/C

| Compound | Value Observed |
| --- | --- |
| CC(C)N(CCCOC(=O)c1ccc(N)cc1)C(C)C | 105 % of control |
| O=S(=O)(O)c1ccc(Br)cc1 | 98 % of control |
| O=C(O)CCN1C/C(=C\c2ccccc2)C(=O)C1=O | 101 % of control |
| CC(=O)Nc1ccc(C)c([N+](=O)[O-])c1 | 98 % of control |
| CCN(CC)CCN(C)C | 105 % of control |
| Cc1cc(NC(=O)NCc2ccc(N)cc2)ccc1S(=O)(=O)F | 100 % of control |
| CN(C)CCCOC(=O)C1C2CC3OC(=O)C1C3C2 (configuration not stated) | 93 % of control |
